TARGET OF ASSAY: CFH18-20 (human complement factor H CCP18-20) with myc tag and His-tag (human) (UniProt P08603)
Sequence (P08603 1046-1231): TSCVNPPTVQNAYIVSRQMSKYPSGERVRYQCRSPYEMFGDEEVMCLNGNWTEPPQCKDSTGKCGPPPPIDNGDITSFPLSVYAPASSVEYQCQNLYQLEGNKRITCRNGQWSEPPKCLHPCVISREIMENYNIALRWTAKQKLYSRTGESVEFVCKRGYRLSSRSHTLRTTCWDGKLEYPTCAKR
MEASUREMENT NOTES: SPR; CFH18-20 (or W1183A) immobilised on a CM5 chip by amine coupling at around 300 RU; VHH4 or its mutants injected as analyte at 30 uL/min; single-cycle kinetics; PBS pH 7.4, Tween 20 (0.005%), 25 °C; Biacore 8K
REPORTED PROPERTY: Kd (nM)
Numbers only, in nM.

Each binder below has a recorded value; state its Kd.
1. VHH4 W123A (VHH) VHH: QVQLVESGGGLVQAGGSLRLSCAASGLTVDDYAIGWFRQAPGKEREGVSCISSSNGSTYYADSVKGRFTISSDNAKNTAYLQMNSLKPEDTAVYYCAAAVSPNLECGTGPFGIYASYYGMDYAGQGTQVTVSS
2. VHH4 (VHH, alpaca VHH selected by phage display; CDR3 is Ala99-Tyr122; Disulfide bond between Cys50 and Cys106; also called VHH4 WT; WT; source: E. coli BL21 (DE3), purified (Ni-NTA, SEC)) VHH: QVQLVESGGGLVQAGGSLRLSCAASGLTVDDYAIGWFRQAPGKEREGVSCISSSNGSTYYADSVKGRFTISSDNAKNTAYLQMNSLKPEDTAVYYCAAAVSPNLECGTGPFGIYASYYGMDYWGQGTQVTVSS

Marked response:
5.05
0.00171

Each binder below has a recorded value; state its Kd.
1. VHH4 G119A (VHH) VHH: QVQLVESGGGLVQAGGSLRLSCAASGLTVDDYAIGWFRQAPGKEREGVSCISSSNGSTYYADSVKGRFTISSDNAKNTAYLQMNSLKPEDTAVYYCAAAVSPNLECGTGPFGIYASYYAMDYWGQGTQVTVSS
2. VHH4 Y95A (VHH) VHH: QVQLVESGGGLVQAGGSLRLSCAASGLTVDDYAIGWFRQAPGKEREGVSCISSSNGSTYYADSVKGRFTISSDNAKNTAYLQMNSLKPEDTAVYACAAAVSPNLECGTGPFGIYASYYGMDYWGQGTQVTVSS

Marked response:
9.18
0.166
